- measurement_target: natriuretic peptide receptor on C3H10T1/2 cells
- experiment: cell-based or functional assay
Kindly state % relative binding (cGMP, Biotrak EIA, peptide at 10^-6 M) for each of the entries shown.
Answers are plain numbers, in %.

Worked set:
In [3]: df
Out[3]:
                                     binder  result_number
0  CFGLKLDRIGNMSGLGC [CNP variant SEQ ID NO:57]           27.4
1  CFGVKLDRIGSMSGLGC [CNP variant SEQ ID NO:42]           64.2
2  CFGLKLARIGSASGLGC [CNP variant SEQ ID NO:26]           5.75
3  CFGLKLDRIGSMSGQGC [CNP variant SEQ ID NO:61]          -3.47
4  CFGLKLDRIGSMSGGGC [CNP variant SEQ ID NO:64]          -10.1

Could you report % relative binding (cGMP, Biotrak EIA, peptide at 10^-6 M) for every entry in the following list?
1. CFGIKLDRIGSMSGLGC [CNP variant SEQ ID NO:41]
2. CFGLKIDRIGSMSGLGC [CNP variant SEQ ID NO:46]
3. CFGLKLDRIGGMSGLGC [CNP variant SEQ ID NO:55]
4. CFGLKLDKIGSMSGLGC [CNP variant SEQ ID NO:49]
5. CFGLKLDRIGAMSGLGC [CNP variant SEQ ID NO:54]
6. CFGLKLDRIGSKSGLGC [CNP variant SEQ ID NO:67]
7. CWGLKLDRIGSMSGLGC [CNP variant SEQ ID NO:31]
8. CFGLKLDRIGSMSALGC [CNP variant SEQ ID NO:58]

Result:
47.4
88.1
27.8
21.5
54.5
66.9
-10.8
53.6

Could you report % relative binding (cGMP, Biotrak EIA, peptide at 10^-6 M) for every entry in the following list?
1. CFGLKLMRIGSMSGLGC [CNP variant SEQ ID NO:39]
2. CFGLKLDRIGSSSGLGC [CNP variant SEQ ID NO:68]

Result:
7.78
62.5
